System: HepG2
Test: cytotoxicity call (relative viability < 0.9)
Settings: 10 µM
Screen size: about 39,000 compounds; about 3,300 (8.5%) were called active. Shown is part of a subset that was picked to be rich in actives.
Classes used: active, inactive

# molecule, group-label
measured = [
    ("COc1ccc([Si](C)(C)[C@H]2[C@H](CC(=O)N(CCO)Cc3ccccc3)O[C@@]3(C(=O)N(Cc4ccc(N5CCC5=O)cc4)c4ccccc43)[C@@H]2C)cc1", "inactive"),
    ("O=c1[nH]cc(F)c(=O)[nH]1", "active"),
    ("C[C@H]1CN([C@@H](C)CO)C(=O)c2cc(NC(=O)Cn3cnnn3)ccc2O[C@H]1CN(C)S(=O)(=O)c1ccc(F)cc1", "inactive"),
    ("NC[C@H]1CCN(c2ccc(Oc3ccccc3)cc2)C1", "active"),
    ("O=c1[nH]cc(S(=O)(=O)N2CCN(c3ccccc3F)CC2)c(=O)[nH]1", "inactive"),
    ("O=C(C[C@@H]1CC[C@@H]2[C@H](COC[C@@H](O)CN2S(=O)(=O)c2ccc(Cl)cc2)O1)NCc1ccncn1", "inactive"),
    ("Cn1cnc(S(=O)(=O)N2CC[C@H](O)[C@@H]2Cc2cnn(C)c2)c1", "inactive"),
    ("Cc1cn2c3c(=O)n(C)c(=O)n(C)c3nc2n1CCN1CCOCC1", "inactive"),
    ("O=c1[nH]cc(Nc2ccccc2)c(=O)[nH]1", "inactive"),
    ("COc1ccc(S(=O)(=O)N[C@H]2CC[C@@H](CC(=O)N3CCC(Cc4ccccc4)CC3)O[C@@H]2CO)cc1", "inactive"),
    ("Cc1ccc(S(=O)(=O)N(C)C[C@H]2OCCCC[C@H](C)Oc3ccc(NC(=O)Nc4ccc(F)cc4)cc3C(=O)N([C@@H](C)CO)C[C@H]2C)cc1", "inactive"),
    ("C[C@H](CO)N1C[C@H](C)[C@@H](CN(C)CC2CCCCC2)Oc2ccc(NC(=O)Nc3ccc(C(F)(F)F)cc3)cc2C1=O", "inactive"),
    ("Cc1ccc(S(=O)(=O)N2C[C@@H](O)COC[C@H]3O[C@H](CC(=O)NCc4ccc(C(F)(F)F)cc4)CC[C@@H]32)cc1", "inactive"),
    ("[N-]=[N+]=NCCOCCNC(=O)CCCOc1ccc(CS(=O)c2nnc(-c3ccc(F)cc3)o2)nc1 (configuration not stated)", "active"),
    ("C[C@@H]1CN([C@H](C)CO)C(=O)c2cc(NC(=O)Nc3ccccc3)ccc2O[C@@H]1CN(C)CC1CCCCC1", "inactive"),
    ("COc1ccc([C@@H](N)c2ccncc2)cc1", "inactive"),
    ("COc1ccc(NC(=O)N(C)C[C@@H]2OCCCC[C@@H](C)Oc3ccc(NC(=O)Nc4ccc(C(F)(F)F)cc4)cc3C(=O)N([C@H](C)CO)C[C@@H]2C)cc1", "inactive"),
    ("C[C@@H]1CN([C@H](C)CO)C(=O)c2cc(NC(=O)Nc3ccc(C(F)(F)F)cc3)ccc2O[C@@H]1CN(C)CC1CCCCC1", "active"),
    ("COc1ccc([Si](C)(C)[C@@H]2[C@@H](CC(=O)N(CCO)Cc3ccccc3)O[C@]3(C(=O)N(Cc4cccc(N5CCC5=O)c4)c4ccccc43)[C@H]2C)cc1", "inactive"),
    ("COc1ccc(S(=O)(=O)Nc2ccc3c(c2)C(=O)N([C@@H](C)CO)C[C@H](C)[C@@H](CN(C)C(=O)Nc2cccc4ccccc24)OCCCC[C@H](C)O3)cc1", "inactive"),
    ("COc1ccc([Si](C)(C)[C@@H]2[C@@H](CC(=O)N(CCO)Cc3ccccc3)O[C@]3(C(=O)N(Cc4ccc(N5C(=O)c6cccc7cccc5c67)cc4)c4ccccc43)[C@H]2C)cc1", "active"),
    ("C[C@@H]1CN([C@@H](C)CO)C(=O)c2c(c3ccccc3n2C)-c2ccccc2CO[C@H]1CN(C)C(=O)Nc1ccccc1", "inactive"),
    ("C[C@H](CO)N1C[C@H](C)[C@@H](CN(C)C(=O)c2ccccc2)OCCCC[C@H](C)Oc2ccc(NC(=O)CCC(F)(F)F)cc2C1=O", "inactive"),
    ("C[C@@H]1[C@@H]([Si](C)(C)F)[C@H](CC(=O)N(CCO)Cc2ccccc2)O[C@@]12C(=O)N(c1ccccc1)c1ccccc12", "active"),
    ("CSCc1nc(=O)cc(C(=O)O)[nH]1", "inactive"),
    ("COc1ccc([Si](C)(C)[C@H]2[C@H](CC(=O)N(CCO)Cc3ccccc3)O[C@@]3(C(=O)N(Cc4cccc(N5C(=O)c6cccc7cccc5c67)c4)c4ccccc43)[C@@H]2C)cc1", "active"),
    ("Cc1noc(C)c1NC(=O)N[C@H]1C=C[C@@H](CC(=O)NCCCN(C)C)O[C@H]1CO", "inactive"),
    ("CCOCc1c[nH]c(=O)[nH]c1=O", "inactive"),
    ("C[C@H]1CN([C@@H](C)CO)C(=O)c2cc(NC(=O)Nc3ccc(C(F)(F)F)cc3)ccc2O[C@@H]1CN(C)CC1CCCCC1", "inactive"),
    ("C[C@@H]1CN([C@@H](C)CO)C(=O)c2cc(NS(C)(=O)=O)ccc2O[C@@H](C)CCCCO[C@@H]1CN(C)C(=O)CCCN(C)C", "inactive"),
    ("Cc1ccc(N2CC[C@@H](CN)C2)cc1", "inactive"),
    ("C[C@@H]1CN([C@H](C)CO)S(=O)(=O)c2ccc(C3=CCCC3)cc2O[C@H]1CN(C)C(=O)C1CCOCC1", "inactive"),
]
